Data credit: PubChem BioAssay

experiment: growth suppression of yeast trafficking mutant, preliminary HTS, modulators of trafficking downstream of Golgi apparatus project, 1536-format plate, OD 615 nm (AID 637); details: yeast transport mutant growth, absorbance 615 nm, 18 h; active compounds read high
Would you kindly list inhibition for each of these compounds?
One number for each entry, in %.

Some solved cases for reference:
COc1cccc(CNC(=O)CCS(=O)(=O)c2cccc3nsnc23)c1	0.95
Cn1ccnc1SCC(=O)Nc1ccc2ccccc2c1	-4.92
CCCCOC(=O)Nc1nc2ccc(OC)cc2s1	-6.17
O=C(c1ccco1)N1CCN(C(=O)c2sccc2-c2ccccc2)CC1	-4.92
CCCCCOc1ccc(C2NC(=O)NC2=O)cc1 (stereo unspecified)	-3.5
CC(C)c1nccn1S(=O)(=O)c1cc(Cl)ccc1Cl	-3.83

// for each compound below, give its inhibition
1. Cc1ccc(-n2c3c(cc(C(=O)NCCCN4CCOCC4)c2=O)C(=O)CC(C)(C)C3)cc1
2. COc1ccccc1S(=O)(=O)Cc1ccc(C(=O)N2CCN(c3ccc(C)cc3)C(C)C2)o1 (stereo unspecified)
3. Cc1occc1C(=O)N1CCN(c2ncccn2)CC1
4. CN(Cc1ccccc1)S(=O)(=O)c1ccc(S(=O)(=O)N2CCN(CCC#N)CC2)cc1
5. Cc1ccc(S(=O)(=O)NCCSc2nnnn2-c2ccc(C(N)=O)cc2)cc1

[-3.67, 1.64, -5.83, -7.17, -2.17]

* * *

assay: viability of PTEN-null HCT116 cells – cell-based, HCT116 clonal line, CellTiter-Glo, pilot screen (AID 824); details: HCT116 PTEN-deleted viability, 60 h, at 10 µM, active compounds read low;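 further: 0% = 20 µM Hyamine control and 100% = vehicle cell control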
Records with an inconclusive call do not appear.
// NB: equality with 90% counts as NO; only viability strictly below is YES

Example entries begin here.
Clc1c(CSc2nc3ccccc3o2)nc2sccn12	YES
O=C(CSc1cn(Cc2ccccc2)c2ccccc12)Nc1nccs1	YES

Determine if `CCn1cc(S(=O)(=O)CC(=O)Nc2ccc3c(c2)OCCO3)c2ccccc21` shows viability strictly lower than 90%.
NO

Determine if CCCCCOC(=O)NCC(O)c1ccccc1 (stereo unspecified) shows viability strictly lower than 90%.
NO

Determine if COc1ccccc1N1CCN(CC(O)c2ccc3cc[nH]c3c2)CC1 (stereo unspecified) shows viability strictly lower than 90%.
YES

* * *

test: doxorubicin toxicity protection in MRP-1 cells – H69AR cells, CellTiter-Glo, duplicate, MRP-1 activator project, pilot screen (AID 807); conditions: H69AR viability with doxorubicin, CellTiter-Glo luminescence; at 10 µM; active compounds read high;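 further: compound pretreatment 18-22 h then 72 h combined with doxorubicin; 0% = doxorubicin alone and 100% = vehicle without doxorubicin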
Would you kindly list viability increase for each of these molecules?
Answers are plain numbers, in %.

Some solved cases for reference:
COc1ccc(OC)c(C2=NOC(C(=O)Nc3c(C)n(C)n(-c4ccccc4)c3=O)C2)c1 (stereo not given)	-0.56
CCOc1ccc(NC(=O)CSc2nnc(COc3c(C)cccc3C)o2)cc1	-1.9
CCOC(=O)CSC(CC)C(=O)Nc1nnc(CC)s1 (stereo not given)	2.67
CCOC(=O)c1ccc(NC(=O)Cn2cc3c(n2)CCC(C)C3)cc1 (stereo not given)	0.35
COc1ccc(N2C(=O)C3CCCN3C2c2cccc(C)c2)cc1 (stereo not given)	-3.13

// for each molecule below, give its viability increase
1. CCCc1nnc2n1N=C(c1ccc(-c3cc(Cl)ccc3Cl)o1)CS2
2. COc1ccc(CNC(=O)CCS(=O)(=O)c2cccc3nonc23)cc1
3. Cc1ccnc(NC(=O)C2CCC(CNc3c(N4CCCC4)c(=O)c3=O)CC2)c1 (stereo not given)
4. Cc1ccc(NC(=O)Cn2cc3c(n2)CCC(C)C3)cc1 (stereo not given)
5. O=C(c1ccc2nc(N3CCOCC3)sc2c1)N1CCCC1
6. COC(=O)c1c(C)nn(-c2ccccc2)c1N
7. O=C(Nc1nnc(-c2ccccc2)s1)c1ccc(Cl)c(S(=O)(=O)N2CCOCC2)c1
8. Cc1ccc(N(C(=O)C2CCC(=O)N2)C2(C(=O)NC3CCCCC3)CCCCC2)cc1 (stereo not given)

[-2.95, -2.89, -1.61, 0.37, -2.73, -1.39, -1.65, -2.37]

// for each molecule below, give its viability increase
1. O=C(NCCN1CCOCC1)c1ccc2c(c1)N(Cc1ccccc1F)C(=O)CS2
2. O=C(Nc1ccc2c(c1)OCCO2)c1cnc2n(c1=O)CCS2
3. COc1cccc(/C=N/n2cnnc2)c1OCc1ccccc1
4. O=C(Nc1nnc(C2CC2)s1)c1cc(-c2ccccc2)nn1-c1ccccc1
5. CC1=C(C(=O)N2CCCCC2)C(c2cccs2)C2=C(CCCC2=O)N1 (stereo not given)
6. O=C(NC1CCCc2ccccc21)c1cccnc1 (stereo not given)

1. 1.73
2. 3.01
3. -0.6
4. -0.61
5. -0.74
6. -1.04

// for each molecule below, give its viability increase
1. O=C(NCc1ccco1)c1cc(S(=O)(=O)N2CCOCC2)ccc1Cl
2. Cc1cccc(N2CCN(C(=O)c3cc4ccccc4oc3=O)CC2)c1C
3. Cc1ccccc1NC(=O)C1CCCN(S(=O)(=O)c2cnc[nH]2)C1 (stereo not given)
4. Cc1ccc(CCP(=O)(O)CN2CCOCC2)cn1
5. CCCCn1c(CN2CCN(c3ccccc3)CC2)nc2c1c(=O)n(C)c(=O)n2C
6. CCOC(=O)c1[nH]c(C)c(C(=O)NC)c1C

-3.24
1.65
-2.13
0.51
-3.11
-0.95
